# reported IC50 at 27 h; entries follow
Test: Cytotoxicity against human HepG2 cells assessed as inhibition of cell viability under dark condition incubated for 27 hrs by CCK8 assay
Format: toxicity, cell-based

>  <compound>
Br.COc1ccc2c(c1)CCc1c(-c3ccccc3)c3n(c1-2)[B-](F)(F)[N+]1=C(c2ccc(OCc4cn(CCC[P+](c5ccccc5)(c5ccccc5)c5ccccc5)nn4)cc2)C(I)=C(c2ccccc2)C1=N3

>  <IC50 at 27 h>
11.4 µM

$$$$
>  <compound>
C=Cc1c(C)c2cc3nc(c(CC(=O)O)c4[nH]c(cc5nc(cc1[nH]2)C(C)=C5CC)c(C)c4C(=O)O)[C@@H](CCC(=O)O)[C@@H]3C [CHLORIN E6]

>  <IC50 at 27 h>
> 50 µM

$$$$
>  <compound>
Br.COc1ccc2c(c1)CCc1c(-c3ccccc3)c3n(c1-2)[B-](F)(F)[N+]1=C(c2ccc(OCC(=O)NCCC[P+](c4ccccc4)(c4ccccc4)c4ccccc4)cc2)C(I)=C(c2ccccc2)C1=N3

>  <IC50 at 27 h>
25.8 µM

$$$$
>  <compound>
COc1ccc2c(c1)CCc1c(-c3ccccc3)c3n(c1-2)[B-](F)(F)[N+]1=C(c2ccc(OCc4cn(CCCNC(=O)c5c(F)c(F)c(F)c(F)c5F)nn4)cc2)C(I)=C(c2ccccc2)C1=N3

>  <IC50 at 27 h>
> 50 µM

$$$$
>  <compound>
COc1ccc2c(c1)CCc1c(-c3ccccc3)c3n(c1-2)[B-](F)(F)[N+]1=C(c2ccc(OCc4cn(CCCN5CCOCC5)nn4)cc2)C(I)=C(c2ccccc2)C1=N3

>  <IC50 at 27 h>
> 50 µM

$$$$
>  <compound>
COc1ccc2c(c1)CCc1c(-c3ccccc3)c3n(c1-2)[B-](F)(F)[N+]1=C(c2ccc(OCC(=O)NCCCN4CCOCC4)cc2)C(I)=C(c2ccccc2)C1=N3

>  <IC50 at 27 h>
> 50 µM

$$$$
>  <compound>
COc1ccc(C2=[N+]3C(=Nc4c(-c5ccccc5)c5c(n4[B-]3(F)F)-c3ccc(OC)cc3CC5)C(c3ccccc3)=C2I)cc1

>  <IC50 at 27 h>
> 50 µM

$$$$
>  <compound>
COc1ccc2c(c1)CCc1c(-c3ccccc3)c3n(c1-2)[B-](F)(F)[N+]1=C(c2ccc(OCC(=O)NCCCNC(=O)c4c(F)c(F)c(F)c(F)c4F)cc2)C(I)=C(c2ccccc2)C1=N3

>  <IC50 at 27 h>
> 50 µM

$$$$

###

Reported IC50 at 27 h values for the following compounds.
Assay: Cytotoxicity against HUVEC cells assessed as inhibition of cell viability under dark condition incubated for 27 hrs by CCK8 assay
Format: toxicity, cell-based
Conditions: human

>  <structureString>
COc1ccc2c(c1)CCc1c(-c3ccccc3)c3n(c1-2)[B-](F)(F)[N+]1=C(c2ccc(OCc4cn(CCCN5CCOCC5)nn4)cc2)C(I)=C(c2ccccc2)C1=N3

>  <IC50 at 27 h>
> 50 µM

$$$$
>  <structureString>
COc1ccc2c(c1)CCc1c(-c3ccccc3)c3n(c1-2)[B-](F)(F)[N+]1=C(c2ccc(OCc4cn(CCCNC(=O)c5c(F)c(F)c(F)c(F)c5F)nn4)cc2)C(I)=C(c2ccccc2)C1=N3

>  <IC50 at 27 h>
> 50 µM

$$$$
>  <structureString>
C=Cc1c(C)c2cc3nc(c(CC(=O)O)c4[nH]c(cc5nc(cc1[nH]2)C(C)=C5CC)c(C)c4C(=O)O)[C@@H](CCC(=O)O)[C@@H]3C

>  <IC50 at 27 h>
> 50 µM

$$$$
>  <structureString>
COc1ccc2c(c1)CCc1c(-c3ccccc3)c3n(c1-2)[B-](F)(F)[N+]1=C(c2ccc(OCC(=O)NCCCN4CCOCC4)cc2)C(I)=C(c2ccccc2)C1=N3

>  <IC50 at 27 h>
> 50 µM

$$$$
>  <structureString>
COc1ccc(C2=[N+]3C(=Nc4c(-c5ccccc5)c5c(n4[B-]3(F)F)-c3ccc(OC)cc3CC5)C(c3ccccc3)=C2I)cc1

>  <IC50 at 27 h>
> 50 µM

$$$$
>  <structureString>
Br.COc1ccc2c(c1)CCc1c(-c3ccccc3)c3n(c1-2)[B-](F)(F)[N+]1=C(c2ccc(OCC(=O)NCCC[P+](c4ccccc4)(c4ccccc4)c4ccccc4)cc2)C(I)=C(c2ccccc2)C1=N3

>  <IC50 at 27 h>
20.1 µM

$$$$
>  <structureString>
Br.COc1ccc2c(c1)CCc1c(-c3ccccc3)c3n(c1-2)[B-](F)(F)[N+]1=C(c2ccc(OCc4cn(CCC[P+](c5ccccc5)(c5ccccc5)c5ccccc5)nn4)cc2)C(I)=C(c2ccccc2)C1=N3

>  <IC50 at 27 h>
12.5 µM

$$$$
>  <structureString>
COc1ccc2c(c1)CCc1c(-c3ccccc3)c3n(c1-2)[B-](F)(F)[N+]1=C(c2ccc(OCC(=O)NCCCNC(=O)c4c(F)c(F)c(F)c(F)c4F)cc2)C(I)=C(c2ccccc2)C1=N3

>  <IC50 at 27 h>
> 50 µM

$$$$

###

Test system: HepG2
Experiment: Photodynamic cytotoxicity against human HepG2 cells assessed as inhibition of cell viability incubated for 3 hrs followed by photo-irradiation at 54 J/cm2 measured after 24 hrs by CCK8 assay
Assay type: functional, cell-based
Details: HepG2, light or radiation study
pIC50: −log10 of the molar value.
Documented pIC50 across a set of compounds
readoutLabel: pIC50

>  <structureString>
COc1ccc2c(c1)CCc1c(-c3ccccc3)c3n(c1-2)[B-](F)(F)[N+]1=C(c2ccc(OCC(=O)NCCCNC(=O)c4c(F)c(F)c(F)c(F)c4F)cc2)C(I)=C(c2ccccc2)C1=N3

>  <valueReported>
7.39

$$$$
>  <structureString>
COc1ccc2c(c1)CCc1c(-c3ccccc3)c3n(c1-2)[B-](F)(F)[N+]1=C(c2ccc(OCC(=O)NCCCN4CCOCC4)cc2)C(I)=C(c2ccccc2)C1=N3

>  <valueReported>
8.21

$$$$
>  <structureString>
Br.COc1ccc2c(c1)CCc1c(-c3ccccc3)c3n(c1-2)[B-](F)(F)[N+]1=C(c2ccc(OCC(=O)NCCC[P+](c4ccccc4)(c4ccccc4)c4ccccc4)cc2)C(I)=C(c2ccccc2)C1=N3

>  <valueReported>
7.84

$$$$
>  <structureString>
COc1ccc2c(c1)CCc1c(-c3ccccc3)c3n(c1-2)[B-](F)(F)[N+]1=C(c2ccc(OCc4cn(CCCNC(=O)c5c(F)c(F)c(F)c(F)c5F)nn4)cc2)C(I)=C(c2ccccc2)C1=N3

>  <valueReported>
6.75

$$$$
>  <structureString>
COc1ccc(C2=[N+]3C(=Nc4c(-c5ccccc5)c5c(n4[B-]3(F)F)-c3ccc(OC)cc3CC5)C(c3ccccc3)=C2I)cc1

>  <valueReported>
7.07

$$$$

###

Tested on: HeLa
Assay: Photodynamic cytotoxicity against human HeLa cells assessed as inhibition of cell viability incubated for 3 hrs followed by photo-irradiation at 54 J/cm2 measured after 24 hrs by CCK8 assay
Format: functional, cell-based
Settings: light or radiation study
# reported log10 IC50; entries follow
readoutLabel: log10 IC50 (log10 of the value in nM)

>  <structureString>
COc1ccc2c(c1)CCc1c(-c3ccccc3)c3n(c1-2)[B-](F)(F)[N+]1=C(c2ccc(OCC(=O)NCCCN4CCOCC4)cc2)C(I)=C(c2ccccc2)C1=N3

>  <targetOfAssay>
HeLa

>  <log10 IC50>
0.32

$$$$
>  <structureString>
Br.COc1ccc2c(c1)CCc1c(-c3ccccc3)c3n(c1-2)[B-](F)(F)[N+]1=C(c2ccc(OCC(=O)NCCC[P+](c4ccccc4)(c4ccccc4)c4ccccc4)cc2)C(I)=C(c2ccccc2)C1=N3

>  <targetOfAssay>
HeLa

>  <log10 IC50>
0.74

$$$$
>  <structureString>
COc1ccc2c(c1)CCc1c(-c3ccccc3)c3n(c1-2)[B-](F)(F)[N+]1=C(c2ccc(OCc4cn(CCCN5CCOCC5)nn4)cc2)C(I)=C(c2ccccc2)C1=N3

>  <targetOfAssay>
HeLa

>  <log10 IC50>
0.68

$$$$
>  <structureString>
COc1ccc2c(c1)CCc1c(-c3ccccc3)c3n(c1-2)[B-](F)(F)[N+]1=C(c2ccc(OCC(=O)NCCCNC(=O)c4c(F)c(F)c(F)c(F)c4F)cc2)C(I)=C(c2ccccc2)C1=N3

>  <targetOfAssay>
HeLa

>  <log10 IC50>
1.58

$$$$
>  <structureString>
Br.COc1ccc2c(c1)CCc1c(-c3ccccc3)c3n(c1-2)[B-](F)(F)[N+]1=C(c2ccc(OCc4cn(CCC[P+](c5ccccc5)(c5ccccc5)c5ccccc5)nn4)cc2)C(I)=C(c2ccccc2)C1=N3

>  <targetOfAssay>
HeLa

>  <log10 IC50>
0.30

$$$$
>  <structureString>
COc1ccc(C2=[N+]3C(=Nc4c(-c5ccccc5)c5c(n4[B-]3(F)F)-c3ccc(OC)cc3CC5)C(c3ccccc3)=C2I)cc1

>  <targetOfAssay>
HeLa

>  <log10 IC50>
1.80

$$$$
>  <structureString>
C=Cc1c(C)c2cc3nc(c(CC(=O)O)c4[nH]c(cc5nc(cc1[nH]2)C(C)=C5CC)c(C)c4C(=O)O)[C@@H](CCC(=O)O)[C@@H]3C

>  <targetOfAssay>
HeLa

>  <log10 IC50>
2.98

$$$$
>  <structureString>
COc1ccc2c(c1)CCc1c(-c3ccccc3)c3n(c1-2)[B-](F)(F)[N+]1=C(c2ccc(OCc4cn(CCCNC(=O)c5c(F)c(F)c(F)c(F)c5F)nn4)cc2)C(I)=C(c2ccccc2)C1=N3

>  <targetOfAssay>
HeLa

>  <log10 IC50>
1.96

$$$$

Cited source: ChEMBL document CHEMBL5338790
